These measurements were taken from patent US10028961B2.

testTarget: IDH2 R140Q (Homo sapiens (Human), UniProt P48735, R140Q)
Sequence (P48735 40-452 R140Q): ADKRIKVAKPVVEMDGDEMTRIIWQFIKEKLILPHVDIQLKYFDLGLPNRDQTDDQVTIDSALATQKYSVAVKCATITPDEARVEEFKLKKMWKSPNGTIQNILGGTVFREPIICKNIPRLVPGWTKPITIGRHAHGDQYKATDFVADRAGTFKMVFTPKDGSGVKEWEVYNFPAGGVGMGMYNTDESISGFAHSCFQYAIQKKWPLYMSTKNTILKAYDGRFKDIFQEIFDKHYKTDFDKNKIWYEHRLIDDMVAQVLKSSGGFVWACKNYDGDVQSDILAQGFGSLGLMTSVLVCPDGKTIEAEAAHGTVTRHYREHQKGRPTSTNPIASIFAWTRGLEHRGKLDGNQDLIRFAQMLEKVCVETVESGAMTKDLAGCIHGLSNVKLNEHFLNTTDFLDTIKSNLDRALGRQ
assayOverview: In vitro assay for IDH2m R140Q inhibitors, cofactor depletion assay
Assay type: biochemical
details: IDH2 R140Q enzyme
attributeMeasured: IC50

Would you please look over these solved cases?
molecule=FC1(F)CCC(Nc2nc(Nc3ccnc(C(F)(F)F)c3)nc(-c3cccc(C(F)(F)F)n3)n2)CC1 attributemeasured=IC50 result="< 50 nM"
molecule=C[C@@H](Nc1nc(N[C@H](C)C2CC2)nc(-c2cncc(Cl)c2)n1)C1CC1 attributemeasured=IC50 result="> 1000 nM"
molecule=FC1(F)CCC(Nc2nc(NC3CCC(F)(F)CC3)nc(-c3ccnc(C(F)(F)F)n3)n2)CC1 attributemeasured=IC50 result="100 to 1000 nM"
molecule="CC(F)(F)c1cncc(-c2nc(NC3CCC(F)(F)C3)nc(NC3CCC(F)(F)C3)n2)n1 (stereo not drawn)" attributemeasured=IC50 result="< 50 nM"
molecule=CC(F)(F)c1cncc(-c2nc(NC3CC(F)(F)C3)nc(NC3CC(F)(F)C3)n2)n1 attributemeasured=IC50 result="< 50 nM"

Exercise: Which measured IC50 value corresponds to `FC(F)c1ccnc(-c2nc(NC3CC(F)(F)C3)nc(NC3CC(F)(F)C3)n2)n1` ?
Solution: 50 to 100 nM

Exercise: Which measured IC50 value corresponds to `C[C@H](Nc1nc(N[C@H](C)c2ccccc2)nc(-c2cccc(C(F)(F)F)n2)n1)c1ccccc1` ?
Solution: < 50 nM

Exercise: Which measured IC50 value corresponds to CC(Nc1nc(NC(C)C(F)(F)F)nc(-n2ccc(C(F)(F)F)n2)n1)C(F)(F)F (stereo not drawn) ?
Solution: < 50 nM

Exercise: Which measured IC50 value corresponds to CC(Nc1nc(Nc2ccnc(C(F)(F)F)c2)nc(-c2cccc(C(F)(F)F)n2)n1)C(F)(F)F (stereo not drawn) ?
Solution: < 50 nM
